Field: apparent KD of K4 kissing-loop reporter. Provide a value for each of the sequences that follow.
- Test system: K4 kissing-loop RNA reporter;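 also: bound reporter read as fluorescence of individual clusters on recovered sequencing chips by microscopy, with normalized cluster intensities fitted with a binding model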
- assay method text: apparent KD of K4 kissing-loop reporter; higher = weaker reporter binding
- condition info: Eterna round: R107; input ligand: arginine 13.2 mM
One number for each entry, in nM.

Previously resolved entries follow.
1. GGAGAGAACUGAAGGAGCGCCAAGAGAGAAGGAAAUAUAGUGAUGUUAUAUAAGAGAGAGAGGCAGGUAGGUCGCAGAGGGAGGA [#03 K4 Arginine B Exclusion]    162
2. AAUAAGGAGUGAUGUUCCAAGUGAUGUUAACGAGGACCGGUACGGCCGCCACUCGAUACGGCCGGAAAGUAAGAUAAACUAAAAU [Same State - Tryptophan A (Freestyle 2)]    42.8
3. GUGUGGAUCCGAAGGAGCGUCCGCAAUCCAGUGAUGUUGGGUGUUGGUUUUAGUAGACGAGGACAGGUAGGUCGCGGAUUUACAA [Same State Arginie B GF 23]    104
4. AUUAUAAAGGCGGCCGCCACUAGUGAUGUUAGUGACUUAUGUAUUAUCAUAAGAAUAAAAUAAAAUAGGACCGGGCCAAAAUAUU [AstrosExTryB#3]    384

Now let's try a different one.
q: Give apparent KD of K4 kissing-loop reporter for this entry on K4 kissing-loop RNA reporter: GGUCCGGGCUCGGCCGCCACUCCCUCCUGCCGGAAGGUGGGAUACCGAGUGAUGUUCGGUUGGAGGAGGACCGGGAGCCCGGACC [#2 Exclusion - Tryptophan B Attempt #13 (HarryS)]
a: 106
